EXPERIMENT: Metabolic stability in rat liver microsomes (RLMs)
CONDITION SUMMARY: rat, microsomes, CL, RLM, individual replicates R1-R3
VALUE TYPE: microsomal CLint
Reply with the number and its unit after it.

Query O=C1C[C@H]2CCCN2C(=O)[C@H](Cc2ccccc2)NC(=O)[C@@H](NC(=O)c2ccc(Cl)cc2)CCC=CCCCCN1 (mixture of isomers) [peptide 46] yields microsomal CLint of 41.5 µL/min/mg

====

EXPERIMENT: Passive artificial membrane permeability (PAMPA)
CONDITION SUMMARY: top well sample vs theoretical equilibrium sample (TIC); average of R1-R3
VALUE TYPE: Permeability% Average (%)
Number in %, nothing else.

O=C1C[C@H]2CCCN2C(=O)[C@H](Cc2ccccc2)NC(=O)[C@@H](NC(=O)c2ccc(Cl)s2)CSCc2cccc(n2)CSCCN1 [compound 31]: 46.6
O=C1C[C@H]2CCCN2C(=O)[C@H](Cc2ccccc2)NC(=O)[C@@H](NC(=O)c2ccc(Cl)s2)CCSCc2cccc(n2)CSCCN1 [compound 33]: 45.3
O=C1C[C@H]2CCCN2C(=O)[C@H](Cc2ccccc2)NC(=O)[C@@H](NC(=O)c2ccc(Cl)s2)CCCSCc2cccc(n2)CSCCN1 [compound 35]: 21.1
CC(C)NCC(O)COc1cccc2ccccc12 (centres unmarked) [Propranolol, reference compound]: 71.1
O=C1C[C@H]2CCCN2C(=O)[C@H](Cc2ccccc2)NC(=O)[C@@H](NC(=O)c2ccc(Cl)s2)CCSC/C=C/CSCCN1 [compound 34]: 37.0
O=C1C[C@H]2CCCN2C(=O)[C@H](Cc2ccccc2)NC(=O)[C@@H](NC(=O)c2ccc(Cl)s2)CCCSC/C=C/CSCCN1 [compound 36]: 26.1

Query O=C1CSCCC[C@H](NC(=O)c2ccc(Cl)s2)C(=O)N[C@@H](Cc2ccccc2)C(=O)N2CCC[C@@H]2CC(=O)NCCSC1 [compound 37] yields Permeability% Average of 30.8

Query O=C1C[C@H]2CCCN2C(=O)[C@H](Cc2ccccc2)NC(=O)[C@@H](NC(=O)c2ccc(Cl)s2)CSC/C=C/CSCCN1 [peptide 32] yields Permeability% Average of 46.9
